Reported log10 of microsomal CLint at 3 μM values for the following molecules.
# ASSAY COMMENT: Metabolic stability in human liver microsomes
# Assay type: in vitro ADME
# CONDITIONS USED: pH 7.4; pooled human liver microsomes 0.5 mg/mL, test compound 3 μM, NADPH, 0, 5, 15, 30, 45 min, LC-MS/MS; read-out: CLint (μL/min/mg protein)
QUANTITY KIND: log10 of microsomal CLint at 3 μM (log10 of the value in µL/min/mg)

MOLECULE | log10 of microsomal CLint at 3 μM
[2H]c1ccc2c(c1)OC(C1=NCCN1)CO2 (centres unmarked) | 0.03
[2H]c1cc2c(cc1[2H])OC(C1=NCCN1)CO2 (centres unmarked) | 0.35
c1ccc2c(c1)OCC(C1=NCCN1)O2 (centres unmarked) | 0.73
COc1ccc2c(c1)[C@]13CCCC[C@@H]1[C@H](C2)N(C)CC3 [Dextromethorphan, reference compound] | 1.68
[2H]c1ccc2c(c1)OCC(C1=NC([2H])([2H])C([2H])([2H])N1)O2 (centres unmarked) | 0.17
[2H]c1c([2H])c([2H])c2c(c1[2H])OCC(C1=NCCN1)O2 (centres unmarked) | 0.41
[2H]c1ccc2c(c1)OC(C1=NC([2H])([2H])C([2H])([2H])N1)CO2 (centres unmarked) | -1.60
[2H]c1c([2H])c([2H])c2c(c1[2H])OCC(C1=NC([2H])([2H])C([2H])([2H])N1)O2 (centres unmarked) | 0.47
[2H]c1ccc2c(c1)OCC(C1=NCCN1)O2 (centres unmarked) | 0.46
[2H]C1([2H])N=C(C2COc3ccccc3O2)NC1([2H])[2H] (centres unmarked) | 0.46
[2H]c1cc2c(cc1[2H])OC(C1=NC([2H])([2H])C([2H])([2H])N1)CO2 (centres unmarked) | 0.23
